TARGET SYSTEM: Estrogen Receptor (ERα) in MCF-7 human ductal carcinoma breast cell line (Homo sapiens, UniProt P03372)
Construct: endogenous in cells; host or cells: MCF-7
Sequence (P03372 1-595): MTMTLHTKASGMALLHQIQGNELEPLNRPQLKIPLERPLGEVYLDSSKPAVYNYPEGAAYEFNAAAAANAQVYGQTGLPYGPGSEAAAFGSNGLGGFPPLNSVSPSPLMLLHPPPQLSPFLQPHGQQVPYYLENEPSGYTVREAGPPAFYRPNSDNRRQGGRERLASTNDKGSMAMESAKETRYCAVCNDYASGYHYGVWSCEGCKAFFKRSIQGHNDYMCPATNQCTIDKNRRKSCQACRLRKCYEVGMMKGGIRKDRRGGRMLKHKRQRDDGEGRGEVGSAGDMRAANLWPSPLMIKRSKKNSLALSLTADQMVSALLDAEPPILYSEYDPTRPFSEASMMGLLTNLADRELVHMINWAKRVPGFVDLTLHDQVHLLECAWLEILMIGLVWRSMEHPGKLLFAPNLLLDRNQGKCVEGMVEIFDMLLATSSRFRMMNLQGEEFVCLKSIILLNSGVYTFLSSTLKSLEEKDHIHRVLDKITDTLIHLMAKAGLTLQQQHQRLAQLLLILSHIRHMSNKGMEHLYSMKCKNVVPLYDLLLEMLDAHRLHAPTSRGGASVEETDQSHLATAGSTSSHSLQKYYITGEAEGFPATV
ASSAY DETAILS: MCF-7 ER degradation assay (cell based immuno-fluorescence)
RECORDED CONDITIONS: MCF-7 cells, 18-22 hours incubation, 50% reduction of ERα expression; single experiment or average of two or more; read-out: MCF-7 ER degradation IC50
PROPERTY LABEL: DC50

Example results:
SMILES RECORD	DC50
Cc1ncsc1-c1ccc(CNC(=O)[C@@H]2C[C@@H](O)CN2C(=O)[C@@H](NC(=O)COCCCCCN(CCOc2cc(F)c([C@@H]3c4[nH]c5ccccc5c4C[C@@H](C)N3CC(C)(C)F)c(F)c2)C(=O)OCc2ccccc2)C(C)(C)C)cc1	12 nM
Cc1ncsc1-c1ccc(CNC(=O)[C@@H]2C[C@@H](O)CN2C(=O)[C@@H](NC(=O)CNCCCCCCCCOc2cc(F)c([C@@H]3c4[nH]c5ccccc5c4C[C@@H](C)N3CC(C)(C)F)c(F)c2)C(C)(C)C)cc1	5.8 nM
Cc1ncsc1-c1ccc(CNC(=O)[C@@H]2C[C@@H](O)CN2C(=O)[C@@H](NC(=O)COCCc2ccc(COc3cc(F)c([C@@H]4c5[nH]c6ccccc6c5C[C@@H](C)N4CC(C)(C)F)c(F)c3)nc2)C(C)(C)C)cc1	0.8 nM

Now look at this entry.
Need DC50 of "Cc1ncsc1-c1ccc(CNC(=O)[C@@H]2C[C@@H](O)CN2C(=O)[C@@H](NC(=O)COCCCCCCCCOc2ccc([C@@H]3c4[nH]c5ccccc5c4C[C@@H](C)N3CC(F)F)nc2)C(C)(C)C)cc1" , thanks.
3.7 nM

* * *

TARGET SYSTEM: Estrogen Receptor (ERα) in MCF-7 human ductal carcinoma breast cell line (Homo sapiens, UniProt P03372)
Construct: endogenous in cells; host or cells: MCF-7
Sequence (P03372 1-595): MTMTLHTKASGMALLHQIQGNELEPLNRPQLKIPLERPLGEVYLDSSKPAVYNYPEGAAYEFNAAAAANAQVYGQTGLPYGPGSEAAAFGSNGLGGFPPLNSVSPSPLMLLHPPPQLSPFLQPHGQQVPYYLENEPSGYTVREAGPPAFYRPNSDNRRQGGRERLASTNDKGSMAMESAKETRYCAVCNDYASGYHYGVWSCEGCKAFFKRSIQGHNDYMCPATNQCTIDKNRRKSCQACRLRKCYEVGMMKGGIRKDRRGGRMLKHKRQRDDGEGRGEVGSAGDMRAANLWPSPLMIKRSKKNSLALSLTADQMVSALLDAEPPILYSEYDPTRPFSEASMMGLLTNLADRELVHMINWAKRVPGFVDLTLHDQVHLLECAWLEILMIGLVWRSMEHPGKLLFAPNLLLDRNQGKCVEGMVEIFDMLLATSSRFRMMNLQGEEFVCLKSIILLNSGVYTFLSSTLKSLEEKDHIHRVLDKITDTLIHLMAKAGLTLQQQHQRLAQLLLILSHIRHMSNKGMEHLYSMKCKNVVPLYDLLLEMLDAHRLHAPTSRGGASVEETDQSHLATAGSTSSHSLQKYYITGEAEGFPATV
ASSAY DETAILS: MCF-7 ER degradation assay (cell based immuno-fluorescence)
RECORDED CONDITIONS: MCF-7 cells, 0.3 μM; ER degradation by fulvestrant at 0.3 μM is defined as 100%

SMILES RECORD	ER degradation ≥ 90% at 0.3 μM
Cc1ncsc1-c1ccc(CNC(=O)[C@@H]2C[C@@H](O)CN2C(=O)[C@@H](NC(=O)COCCOCCOc2cc(F)c([C@@H]3c4[nH]c5ccccc5c4C[C@@H](C)N3CC(C)(C)F)c(F)c2)C(C)(C)C)cc1	•
Cc1ncsc1-c1ccc([C@H](C)NC(=O)[C@@H]2C[C@@H](O)CN2C(=O)[C@@H](NC(=O)COCCOCCCCCOc2cc(F)c([C@@H]3c4[nH]c5ccccc5c4C[C@@H](C)N3CC(C)(C)F)c(F)c2)C(C)(C)C)cc1	••

* * *

TARGET SYSTEM: Estrogen Receptor (ERα) in MCF-7 human ductal carcinoma breast cell line (Homo sapiens, UniProt P03372)
Construct: endogenous in cells; host or cells: MCF-7
ASSAY DETAILS: MCF-7 ER degradation assay (cell based immuno-fluorescence)
RECORDED CONDITIONS: MCF-7 cells, 18-22 hours incubation, 50% reduction of ERα expression; single experiment or average of two or more; read-out: MCF-7 ER degradation IC50
Output fulfilled for records whose DC50 is lower than 2 nM, not fulfilled for records at or above 2 nM.

COMPOUND	ASSIGNED CLASS
Cc1ncsc1-c1ccc(CNC(=O)[C@@H]2C[C@@H](O)CN2C(=O)[C@@H](NC(=O)CCOCCCCOc2cc(F)c([C@@H]3c4[nH]c5ccccc5c4C[C@@H](C)N3CC(C)(C)F)c(F)c2)C(C)(C)C)cc1 [Example 92]	fulfilled
Cc1ncsc1-c1ccc(CNC(=O)[C@@H]2C[C@@H](O)CN2C(=O)[C@@H](NC(=O)COCCCCCOc2ccc([C@@H]3c4[nH]c5ccccc5c4C[C@@H](C)N3CC(F)F)nc2)C(C)(C)C)cc1 [Example 17]	not fulfilled
Cc1ncsc1-c1ccc(CNC(=O)[C@@H]2C[C@@H](OC(=O)[C@@H]3CCCN3)CN2C(=O)[C@@H](NC(=O)CCCCCCCCCCOc2cc(F)c([C@@H]3c4[nH]c5ccccc5c4C[C@@H](C)N3CC(C)(C)F)c(F)c2)C(C)(C)C)cc1 [Example 33]	not fulfilled
Cc1ncsc1-c1ccc([C@H](C)NC(=O)[C@@H]2C[C@@H](O)CN2C(=O)[C@@H](NC(=O)COCCCCOCCCOc2cc(F)c([C@@H]3c4[nH]c5ccccc5c4C[C@@H](C)N3CC(C)(C)F)c(F)c2)C(C)(C)C)cc1 [Example 154]	fulfilled
Cc1ncsc1-c1ccc([C@H](CN(C)C)NC(=O)[C@@H]2C[C@@H](O)CN2C(=O)[C@@H](NC(=O)COCCOCCOCCOc2cc(F)c([C@@H]3c4[nH]c5ccccc5c4C[C@@H](C)N3CC(C)(C)F)c(F)c2)C(C)(C)C)cc1 [Example 104]	not fulfilled

hey, is DC50 for Cc1ncsc1-c1ccc(CNC(=O)[C@@H]2C[C@@H](O)CN2C(=O)[C@@H](NC(=O)COCCOCCOCCOCC(=O)Nc2cc(F)c([C@@H]3c4[nH]c5ccccc5c4C[C@@H](C)N3CC(C)(C)F)c(F)c2)C(C)(C)C)cc1 [Example 68] lower than 2 nM or not?
not fulfilled

DC50 strictly < 2 nM for this compound? Cc1ncsc1-c1ccc(CNC(=O)[C@@H]2C[C@@H](O)CN2C(=O)[C@@H](NC(=O)COC[C@@H]2CC2COCCOc2cc(F)c([C@@H]3c4[nH]c5ccccc5c4C[C@@H](C)N3CC(C)(C)F)c(F)c2)C(C)(C)C)cc1 (single isomer, unassigned) [Example 123]
fulfilled

* * *

Entries annotated with measured IC50
TARGET SYSTEM: recombinant human Estrogen Receptor alpha ligand binding domain, residues 307-554 (ER alpha-LBD (GST)) (Homo sapiens, UniProt P03372)
ASSAY DETAILS: ERα binding assay (LanthaScreen TR-FRET competition)
RECORDED CONDITIONS: TR-FRET competition with Fluormone ES2 tracer, 4 hours at room temperature; single experiment or average of two or more
Your answer is read as nM, so omit the unit and give the number.

Solved cases below.
COMPOUND	PROPERTY LABEL	READOUT UNITS	VALUE OBSERVED
Cc1ncsc1-c1ccc(CNC(=O)[C@@H]2C[C@@H](O)CN2C(=O)[C@@H](NC(=O)CNCCCCCCCCOc2cc(F)c([C@@H]3c4[nH]c5ccccc5c4C[C@@H](C)N3CC(C)(C)F)c(F)c2)C(C)(C)C)cc1 [Example 147]	IC50	nM	1
Cc1ncsc1-c1ccc(CNC(=O)[C@@H]2C[C@@H](O)CN2C(=O)[C@@H](NC(=O)COCCCOCCOc2cc(F)c([C@@H]3c4[nH]c5ccccc5c4C[C@@H](C)N3CC(C)(C)F)c(F)c2)C(C)(C)C)cc1 [Example 25]	IC50	nM	0.5
Cc1ncsc1-c1ccc(CNC(=O)[C@@H]2C[C@@H](O)CN2C(=O)[C@@H](NC(=O)COCCOCCOCCOCC(=O)Nc2cc(F)c([C@@H]3c4[nH]c5ccccc5c4C[C@@H](C)N3CC(C)(C)F)c(F)c2)C(C)(C)C)cc1 [Example 68]	IC50	nM	1

// below: IC50 requested for another compound
Any idea what its IC50 is? The compound is Cc1ncsc1-c1ccc(CNC(=O)[C@@H]2C[C@@H](O)CN2C(=O)[C@@H](NC(=O)CCN2CCN(CCCCOc3cc(F)c([C@@H]4c5[nH]c6ccccc6c5C[C@@H](C)N4CC(C)(C)F)c(F)c3)CC2)C(C)(C)C)cc1 [Example 98]
0.6
